Reference source for all entries: patent US5436263A

target: human FPTase (Homo sapiens, UniProt P49354+P49356); experiment: In vitro inhibition of Ras farnesyl-protein transferase, human FPTase; settings: 100 nM Ras-CVIM, 0.1% PEG 20,000, 10 μM ZnCl2, 30 min, concentration giving 50% inhibition of FPTase, read-out: Inhibition of RAS farnesylation IC50, human
pIC50: −log10 of the molar value.
MEASUREMENT NAME: pIC50

| CHEMICAL STRING | EXPERIMENTAL SYSTEM | MEASUREMENT NAME | TEST RESULT |
| --- | --- | --- | --- |
| COC(=O)C1=CC(CO)=COc2oc3cccc(O)c3c(=O)c21 | human FPTase (Homo sapiens, UniProt P49354+P49356) | pIC50 | 5.57 |
